The measured values listed here are drawn from patent US11325921B2.

# System: MEIS1 mRNA in MV4; 11 cells
# PROTOCOL_SUMMARY: Test 3: inhibition of mRNA transcription, MEIS1
# Assay type: cell-based
# TEST_CONTEXT: Homo sapiens, MV4, 20 to 24 hours, fitted with GAPDH, read-out: mRNA at 1 μM (% control) MEIS1
MEASURED_PROPERTY: mrna remaining at 1 µM (%)
The response must be a number in % with no trailing unit.

Give the measured mrna remaining at 1 µM of `O=C([C@H]1N[C@@H]2CC[C@H]1C2)N1CC2(C1)CN(c1c(C(F)F)cnc3sc(CC(F)(F)F)cc13)C2` . 48.9

Give the measured mrna remaining at 1 µM of `O=C([C@H]1N[C@H]2C[C@@H]1[C@@H](F)C2)N1CC2(C1)CN(c1c(C(F)(F)F)cnc3sc(CC(F)(F)F)cc13)C2` . 34.2

Give the measured mrna remaining at 1 µM of `O=C([C@H]1NC2CCC1CC2)N1CC2(C1)CN(c1c(C(F)(F)F)cnc3sc(CC(F)(F)F)cc13)C2` . 18.7

Give the measured mrna remaining at 1 µM of `O=C([C@H]1N[C@H]2CC[C@@H]1C[C@@H]2OCc1ccccc1)N1CC2(C1)CN(c1c(C(F)(F)F)cnc3sc(CC(F)(F)F)cc13)C2` . 57.3

Give the measured mrna remaining at 1 µM of `O=C1C[C@@H]2CC[C@H]1[C@@H](C(=O)N1CC3(C1)CN(c1c(C(F)(F)F)cnc4sc(CC(F)(F)F)cc14)C3)N2` . 82.9

Give the measured mrna remaining at 1 µM of `O=C([C@H]1NC2CCC1CC2)N1CC2(C1)CN(c1c(C(F)F)cnc3sc(CC(F)(F)F)cc13)C2` . 41.4

---

# Test system: RS4; 11 cells
# PROTOCOL_SUMMARY: Test 2: inhibition of cell proliferation, RS4; 11
# Format: cell-based
# TEST_CONTEXT: 11 and MOLM-13 cells, summary of the table
MEASURED_PROPERTY: cell proliferation inhibition activity (in words, good)

Examples from the recorded data:
{"columns": ["COMPOUND", "RESULT"],
 "data": [
  ["N#Cc1cnc2sc(CC(F)(F)F)cc2c1N1CC2(CN(C(=O)[C@H]3NC4CCC3CC4)C2)C1 [Example 20]", "good"],
  ["O=C([C@H]1NC2CCC1CC2)N1CC2(C1)CN(c1c(C(F)F)cnc3sc(CC(F)(F)F)cc13)C2 [Example 26]", "good"],
  ["N#Cc1cnc2sc(CC(F)(F)F)cc2c1N1CC2(CN(C(=O)[C@H]3N[C@@H]4CC[C@H]3C4)C2)C1 [Example 21]", "good"],
  ["O=C([C@H]1N[C@@H]2CC[C@H]1C2)N1CC2(C1)CN(c1c(C(F)F)cnc3sc(CC(F)(F)F)cc13)C2 [Example 27]", "good"]
]}

Switching to the query record.
Lab note: need cell proliferation inhibition activity (in words, good) for O=C([C@H]1N[C@H]2CC[C@@H]1[C@@H](F)C2)N1CC2(C1)CN(c1c(C(F)(F)F)cnc3sc(CC(F)(F)F)cc13)C2 [Example 1] on RS4; 11 cells, anyone have it? good

---

# System: MEIS1 mRNA in MV4; 11 cells
# PROTOCOL_SUMMARY: Test 3: inhibition of mRNA transcription, MEIS1
# Format: cell-based
# TEST_CONTEXT: Homo sapiens, MV4, 20 to 24 hours, fitted with GAPDH, read-out: mRNA at 1 μM (% control) MEIS1
MEASURED_PROPERTY: mrna remaining at 1 µM

Give the measured mrna remaining at 1 µM of O=C([C@H]1N[C@H]2CC[C@@H]1C[C@H]2F)N1CC2(C1)CN(c1c(C(F)(F)F)cnc3sc(CC(F)(F)F)cc13)C2 [Example 10] . 68.8%

Give the measured mrna remaining at 1 µM of O=C([C@H]1N[C@@H]2CC[C@H]1C2)N1CC2(C1)CN(c1c(C(F)(F)F)cnc3sc(CC(F)(F)F)cc13)C2 [Example 2] . 32%

Give the measured mrna remaining at 1 µM of O=C([C@H]1N[C@H]2CC[C@@H]1C[C@@H]2O)N1CC2(C1)CN(c1c(C(F)(F)F)cnc3sc(CC(F)(F)F)cc13)C2 [Example 6] . 51.3%

Give the measured mrna remaining at 1 µM of O=C([C@H]1N[C@H]2CC[C@@H]1[C@@H](F)C2)N1CC2(C1)CN(c1c(C(F)(F)F)cnc3sc(CC(F)(F)F)cc13)C2 [Example 1] . 18%

Give the measured mrna remaining at 1 µM of O=C([C@H]1N[C@H]2CC[C@@H]1C(F)(F)C2)N1CC2(C1)CN(c1c(C(F)(F)F)cnc3sc(CC(F)(F)F)cc13)C2 [Example 4] . 65.4%

Give the measured mrna remaining at 1 µM of N#Cc1cnc2sc(CC(F)(F)F)cc2c1N1CC2(CN(C(=O)[C@H]3NC4CCC3CC4)C2)C1 [Example 20] . 41.8%

Give the measured mrna remaining at 1 µM of N#Cc1cnc2sc(CC(F)(F)F)cc2c1N1CC2(CN(C(=O)[C@H]3N[C@@H]4CC[C@H]3C4)C2)C1 [Example 21] . 40.9%

Give the measured mrna remaining at 1 µM of C=CCO[C@H]1C[C@H]2CC[C@@H]1N[C@@H]2C(=O)N1CC2(C1)CN(c1c(C(F)(F)F)cnc3sc(CC(F)(F)F)cc13)C2 [Example 11] . 60.7%

Give the measured mrna remaining at 1 µM of N#Cc1cnc2sc(CC(F)(F)F)cc2c1N1CC2(CN(C(=O)[C@H]3N[C@H]4CC[C@@H]3C(F)(F)C4)C2)C1 [Example 23] . 45.4%
